- protocol.notes: modulators of CIT2-GFP expression in yeast, primary screen, S. cerevisiae, GFP fusion, multiplex flow cytometry, MLPCN library (AID 2029);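 further: ratio of well median GFP fluorescence to mean of DMSO wells on the plate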
- condition.set: S. cerevisiae CIT2-GFP strain, 3 h, at 10 µM, 100 means same as DMSO wells
The campaign covered roughly 320,000 compounds. About 210 (0.066%) were called active.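 How the source made its calls: active means GFP response relative to DMSO above a set limit, near the screen mean plus 3 SD (cut at about 150% in these data); inconclusive means Fewer than 70 cells measured for a yeast strain; inactive means the rest.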 Shown is part of a subset that was picked to be rich in actives.
In this exercise, the only acceptable responses are active, inactive

Completed entries (count: 3):
Task item: Record lookup: outcome of this test for CSCCC(NS(=O)(=O)c1ccc(C)cc1)C(=O)N1CCCC1 (stereo not given) ?
Reply: inactive

Task item: Record lookup: outcome of this test for `COC(=O)C1=C(C)N(Cc2ccccc2)C(=NCCCOC(C)C)N[C@H]1c1ccccc1` ?
Reply: inactive

Task item: Record lookup: outcome of this test for Cc1ccccc1NC(=O)N1CCCC1C(=O)NCc1ccccc1 (stereo not given) ?
Reply: inactive

---
Task item: Record lookup: outcome of this test for `Cc1cc(C(=O)COc2ccccc2Cl)c(C)n1C1CC1` ?
Reply: inactive

Task item: Record lookup: outcome of this test for `COc1cccc(NC(=O)CN(C)C(=O)c2cc(C3CC3)nn2-c2ccccc2)c1` ?
Reply: inactive

Task item: Record lookup: outcome of this test for O=C(NC(=S)NC1CCS(=O)(=O)C1)c1cccc([N+](=O)[O-])c1 (stereo not given) ?
Reply: active

Task item: Record lookup: outcome of this test for `O=C(CSc1ccc(C(F)(F)F)cc1[N+](=O)[O-])NCCOc1ccccc1` ?
Reply: inactive

Task item: Record lookup: outcome of this test for `COC(=O)COc1ccc2c(=O)c(Oc3ccccc3Br)coc2c1` ?
Reply: inactive

Task item: Record lookup: outcome of this test for CCn1c(SCC(=O)Nc2ccccc2F)nc2c(c1=O)SC(C)C2 (stereo not given) ?
Reply: inactive

Task item: Record lookup: outcome of this test for `CN(C)S(=O)(=O)c1cccc(NC(=O)COc2ccc3ccccc3c2)c1` ?
Reply: inactive

Task item: Record lookup: outcome of this test for CCn1c(SCC(=O)Nc2nc(C)cs2)nnc1C(C)NC(=O)c1ccccc1 (stereo not given) ?
Reply: inactive
